The measured values listed here are drawn from ChEMBL document CHEMBL4689842.

# System: U2OS
# protocol: Multiplex assay against U2OS
# Type: toxicity, cell-based
# protocol_conditions: human, 24 h, 10 µM, compound concentration 10 uM, replicate 1
Label criterion not met if Population Membrane Permeable-Phenotype (%) falls below 8%; label criterion met in every other case.

compound	target_entity	class_label
CC(C)[C@H](CO)Nc1nc(Nc2cccc(Cl)c2)c2ncn(C(C)C)c2n1 [PURVALANOLA]	U2OS	criterion met
N#CCNC(=O)c1ccc(-c2ccnc(Nc3ccc(N4CCOCC4)cc3)n2)cc1 [MOMELOTINIB]	U2OS	criterion met
CC[C@@H]1C(=O)N(C)c2cnc(Nc3ccc(C(=O)NC4CCN(C)CC4)cc3OC)nc2N1C1CCCC1 [BI-2536]	U2OS	criterion met
CCCCN(CC)c1nc(C)nc2c1c(C)cn2-c1c(C)cc(C)cc1C.Cl	U2OS	criterion not met

Enquiry: Textbook exercise: given the entry `Cc1c(P(=S)(c2ccccc2)c2ccccc2)n2ccccc2[n+]1C/C=C/c1ccccc1.[Br-]` , state whether its Population Membrane Permeable-Phenotype (%) is greater than or equal to 8%.
Return: criterion met

Enquiry: Assess whether reported Population Membrane Permeable-Phenotype (%) for `Cc1c(Nc2ccc(S(=O)(=O)N3CCN(C)CC3)cc2F)nc2ccc(Nc3cnn(C4CC4)c3)cn2c1=O` sits at 8% or higher.
Return: criterion not met

Enquiry: Does Population Membrane Permeable-Phenotype (%) meet or surpass 8% for CCOc1ccn(-c2ccc(F)cc2)c(=O)c1C(=O)Nc1ccc(Oc2ccnc(N)c2Cl)c(F)c1 [BMS-777607] ?
Return: criterion not met

Enquiry: Check the entry CCCCCNC(=N)N/N=C/c1c[nH]c2ccc(OC)cc12.O=C(O)/C=C\C(=O)O [TEGASEROD MALEATE] : does Population Membrane Permeable-Phenotype (%) equal or exceed 8%?
Return: criterion met

Enquiry: Given the entry `c1ccc(-c2oc3ncnc(NC[C@@H]4CCCO4)c3c2-c2ccccc2)cc1` , answer whether its Population Membrane Permeable-Phenotype (%) meets or surpasses 8%.
Return: criterion met

Enquiry: Quick check, Population Membrane Permeable-Phenotype (%) >= 8%? `CCCc1cc(C)[nH]c(=O)c1CNC(=O)c1cc(-c2ccc(N3CCN(C(C)C)CC3)nc2)cc2c1cnn2C(C)C`
Return: criterion met

Enquiry: Could you verify whether the entry CN1C(=O)[C@@H](NC(=O)c2cc3ccccc3[nH]2)N=C(c2ccccc2)c2ccccc21 [DEVAZEPIDE] shows Population Membrane Permeable-Phenotype (%) of no less than 8%?
Return: criterion met

Enquiry: Would you say CC[C@H](Nc1ncnc2[nH]cnc12)c1nc2cccc(F)c2c(=O)n1-c1ccccc1 [IDELALISIB] shows Population Membrane Permeable-Phenotype (%) at minimum 8%?
Return: criterion not met

Enquiry: Check if Population Membrane Permeable-Phenotype (%) >= 8% (inclusive). Item: `CCOC(=O)CCNc1cc(N2CCc3ccccc3CC2)nc(-c2ccccn2)n1`
Return: criterion not met

Enquiry: Tell me whether Population Membrane Permeable-Phenotype (%) is at least 8% here: C[C@@H](Oc1cc(-n2cnc3ccc(CN4CCN(C)CC4)cc32)sc1C(N)=O)c1ccccc1C(F)(F)F [GSK-461364]
Return: criterion met

Enquiry: Entry Oc1cccc(-c2nc(N3CCOCC3)c3oc4ncccc4c3n2)c1 [PI-103] : is its Population Membrane Permeable-Phenotype (%) no less than 8%?
Return: criterion met

Enquiry: Has `CC(/C=C1\SC(=S)N(CCCC(=O)Nc2ccc(C(=O)O)c(O)c2)C1=O)=C\c1ccccc1` a recorded Population Membrane Permeable-Phenotype (%) greater than or equal to 8%?
Return: criterion not met
